Numbers sourced from PubChem BioAssay (NCI).

Test: NCI Yeast Anticancer Drug Screen. Data for the sgs1 mgt1 strain (AID 161);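 further: 0% = growth of cultures given vehicle only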
Details: S. cerevisiae sgs1 mgt1 strain, at 50.0 µM, stronger effect = higher value
Experimental: Growth inhibition of yeast strains with defined genetic alterations is measured as a screen for potential anti-cancer activity. Selected strains with alterations in DNA damage repair or cell cycle control were exposed to compounds and growth inhibition was measured relative to vehicle treated controls. The strain used in this assay is sgs1 mgt1
The panel holds about 79,000 compounds, 15% with a hit somewhere; the sample as a whole holds those more often. Calls of active or inactive are those of the source. No stated cut-off is given here; in the data, active means growth inhibition above about 70%; inactive means the rest. Where a SMILES comes first, the peptide text is derived from it. [ ]: non-standard residue; d: D form. The star is where a group is joined. Cbz = O=C(OCc1ccccc1)*; Nva = CCC[CH](N)C(=O)O
Below, each of the compounds is paired with its reported growth inhibition value.

Example entries begin here.
O=[N+]([O-])c1ccc(O)c(O)c1    -10% (inactive)
CCOC(=O)C(=CNc1cc(OC)cc2cccnc12)C(=O)OCC    0.15% (inactive)
N#CC1=C(c2ccccc2)NNC(c2ccc(Cl)cc2)CC1=O (stereo not drawn)    2.4% (inactive)
C=CCOC(=O)C(C#N)C(C)CC(=O)OCC (stereo not drawn)    -22.9% (inactive)

-- ask growth inhibition for O=C1NC(=O)/C(=C\c2cccc(Br)c2)N1 ?
-- reply -12.1% (inactive)

-- ask Proceed to CC(NS(=O)(=O)c1cccc(C(=O)O)c1)c1ccccc1 (stereo not drawn)
-- reply 0.3% (inactive)

-- ask Proceed to CCOCNC(=O)Nc1ccccc1
-- reply 7% (inactive)

-- ask Proceed to O=C(O)C1CC(O)c2ccccc2C1c1ccccc1 (stereo not drawn)
-- reply -11.4% (inactive)

-- ask Proceed to CCCC(NC(=O)OCc1ccccc1)C(=O)NC(CCSC)C(=O)O (stereo not drawn) (Cbz-[Nva]-Met-OH; configuration not given here)
-- reply -4.65% (inactive)

* * *

Below, each of the compounds is paired with its reported growth inhibition value.
Assay: NCI Yeast Anticancer Drug Screen. Data for the bub3 strain (AID 167)
Conditions: S. cerevisiae bub3 mutant strain, at 50.0 µM, stronger effect = higher value
The panel holds about 79,000 compounds, 15% with a hit somewhere; the sample as a whole holds those more often.
State the answer as a number, implicitly in %.

CC1CCN(C(c2ccccc2)c2ccc3ccccc3c2O)CC1 (stereo not drawn)    33.6
COc1ccc(C(C)c2cc(OC)c(OC)cc2OC)cc1 (stereo not drawn)    44.2
O=C1CC(=O)N2C=CC=CC2N1 (stereo not drawn)    -16.7
C/C(=N/N(C)c1ccccc1)C(C)C    24.4
O=C1CCCCC1CN1CCOCC1 (stereo not drawn)    -22.1
CCN(CC)c1nc(=O)c(C(=O)C(C)(C)C)c(C(C)(C)C)o1    -9.15
CC(=O)N(C)C1=C(Sc2ccc([N+](=O)[O-])cc2)C(=O)c2ccccc2C1=O    99.1
CCOC(=O)CC(=O)C1CCC2C3CC=C4CC(O)CCC4(C)C3CCC12C (stereo not drawn)    2.1

-- ask growth inhibition for CSc1nc(=S)c2[nH]c(Cl)nc2[nH]1 ?
-- reply 16.4

-- ask Proceed to Cc1cccc(NN)c1
-- reply 23.3

* * *

Assay: NCI Yeast Anticancer Drug Screen. Data for the mec2-1 strain (AID 157)
Settings: S. cerevisiae mec2-1 strain, at 50.0 µM, stronger effect = higher value
This is part of a sample that, as a whole, favours compounds with a hit. Of some 79,000 tested, about 15% had one in any assay.
parameter: growth inhibition (%)
State the answer as a number, implicitly in %.

Example entries begin here.
NC(C(=O)O)c1ccc(F)cc1 (centres undefined)    -1.4
CS(=O)CC(Nc1ccccc1)c1ccccc1 (centres undefined)    -12.8
C1=NCCCCCCCN=Cc2ccccc2NCCNc2ccccc21    23.8

Next:
-- ask growth inhibition for OC(CCCCCCCCC(O)CN1CCCCC1)CN1CCCCC1 (centres undefined) ?
-- reply 25.6
